Test system: Mycobacterium tuberculosis
assay details: Antimycobacterial activity against Mycobacterium tuberculosis H37Rv ATCC 27294 assessed as inhibition of bacterial growth measured after 7 days by resazurin microtitre assay
Assay type: functional
assay conditions: H37Rv ATCC 27294, 168 h, time 7 day
Consider the cut-off 30 µg/mL. If the recorded MIC is strictly smaller, the label is criterion met; if not, the label is criterion not met.

input: MIC strictly < 30 µg/mL for this compound? O=C(/C=C/c1ccc([N+](=O)[O-])o1)c1ccc(Nc2nc3ccccc3o2)cc1
output: criterion met

input: Next record, please: COc1cc(/C=C/C(=O)c2ccc(Nc3nc4cc(C)ccc4o3)cc2)cc(OC)c1OC
output: criterion met

input: Next record, please: O=C(/C=C/c1cccc([N+](=O)[O-])c1)c1ccc(Nc2nc3ccccc3o2)cc1
output: criterion not met

input: Next record, please: O=C(/C=C/c1ccc([N+](=O)[O-])o1)c1ccc(Nc2nc3cc(Cl)ccc3o2)cc1
output: criterion met

input: Next record, please: CC[C@@H](CO)NCCN[C@@H](CC)CO
output: criterion met

input: Next record, please: COc1ccc(OC)c(C(=O)/C=C/c2ccc3nccnc3c2)c1
output: criterion met

input: Next record, please: O=C(/C=C/c1ccc(Br)cc1)c1ccc(Nc2nc3ccccc3o2)cc1
output: criterion not met

input: Next record, please: COc1cc(/C=C/C(=O)c2ccc(Nc3nc4cc(Cl)ccc4o3)cc2)cc(OC)c1OC
output: criterion met

input: Next record, please: CO[C@H]1/C=C/O[C@@]2(C)Oc3c(C)c(O)c4c(O)c(c(/C=N/N5CCN(C)CC5)c(O)c4c3C2=O)NC(=O)/C(C)=C\C=C\[C@H](C)[C@H](O)[C@@H](C)[C@@H](O)[C@@H](C)[C@H](OC(C)=O)[C@@H]1C
output: criterion met

input: Next record, please: O=C(/C=C/c1ccccc1Br)c1ccc(Nc2nc3ccccc3o2)cc1
output: criterion not met

input: Next record, please: O=C(/C=C/c1ccco1)c1ccc(Nc2nc3ccccc3o2)cc1
output: criterion not met

input: Next record, please: O=C(/C=C/c1ccc(Cl)cc1)c1ccc(Nc2nc3ccccc3o2)cc1
output: criterion not met

input: Next record, please: O=C(/C=C/c1ccccc1)c1ccc(Nc2nc3ccccc3o2)cc1
output: criterion met

input: Next record, please: COc1ccc(/C=C/C(=O)c2ccc(Nc3nc4ccccc4o3)cc2)cc1OC
output: criterion not met

input: Next record, please: O=C(/C=C/c1ccccn1)c1ccc(Nc2nc3ccccc3o2)cc1
output: criterion met

From: ChEMBL document CHEMBL5143690
